target_entity: hAT1R (Homo sapiens)
Sequence (P30556 1-359): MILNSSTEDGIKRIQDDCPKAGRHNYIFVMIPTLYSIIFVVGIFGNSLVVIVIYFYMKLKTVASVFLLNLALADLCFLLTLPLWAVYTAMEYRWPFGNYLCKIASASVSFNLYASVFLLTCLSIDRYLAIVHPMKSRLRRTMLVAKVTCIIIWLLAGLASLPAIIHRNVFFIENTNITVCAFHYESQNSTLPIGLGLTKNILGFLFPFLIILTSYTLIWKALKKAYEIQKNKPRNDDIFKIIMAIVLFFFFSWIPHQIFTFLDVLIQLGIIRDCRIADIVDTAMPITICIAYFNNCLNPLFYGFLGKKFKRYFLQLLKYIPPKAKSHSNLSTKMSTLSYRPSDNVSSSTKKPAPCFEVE
measurement_notes: BRET β-arrestin2 biosensor assay, higher receptor expression (hAT1R 5 ng/well), HEK293 cells
Type: cell-based
Classification field: enter yes for BRET β-Arrestin2 High AT1R Expression Ymax (%) values not below 70%, no for values below it.

Exam item: decide whether the reported BRET β-Arrestin2 High AT1R Expression Ymax (%) for "CCCCC(=O)N(Cc1ccc(-c2cc(-c3ccccc3)ccc2-c2nn[nH]n2)cc1)C1(C(=O)O)CC1" is at least 70%.
Marked response: no

Exam item: Record "CCCCc1ncc(C(=O)NCC(C)(C)COC)n1Cc1ccc(-c2cc(-c3ccccc3)ccc2-c2nn[nH]n2)cc1" ; criterion: BRET β-Arrestin2 High AT1R Expression Ymax (%) no lower than 70%. Met?
Marked response: yes

Exam item: Determine whether measured BRET β-Arrestin2 High AT1R Expression Ymax (%) meets or exceeds 70% for "CCCCC(=O)N(Cc1ccc(-c2cc(Nc3ccccc3)ccc2-c2nn[nH]n2)cc1)[C@H](C(=O)O)C(C)C"
Marked response: no

Exam item: Has "CCc1nc2c(C)cc(C)nc2n1Cc1ccc(-c2cc(-c3ccccc3)ccc2C(=O)O)cc1" a recorded BRET β-Arrestin2 High AT1R Expression Ymax (%) greater than or equal to 70%?
Marked response: yes

Exam item: Answer whether BRET β-Arrestin2 High AT1R Expression Ymax (%) of "CCc1nc2c(C)cc(C)nc2n1Cc1ccc(-c2cc(Oc3nccs3)ccc2-c2nn[nH]n2)cc1" is greater than or equal to 70%.
Marked response: no

Hello, the source for this data is patent US12037324B2, in case you need it.
